# tgt: TEL-KIT fusion gene transfected cells (Ba/F3)
# Sequence (P10721 26-976 limits assumed, change not shown): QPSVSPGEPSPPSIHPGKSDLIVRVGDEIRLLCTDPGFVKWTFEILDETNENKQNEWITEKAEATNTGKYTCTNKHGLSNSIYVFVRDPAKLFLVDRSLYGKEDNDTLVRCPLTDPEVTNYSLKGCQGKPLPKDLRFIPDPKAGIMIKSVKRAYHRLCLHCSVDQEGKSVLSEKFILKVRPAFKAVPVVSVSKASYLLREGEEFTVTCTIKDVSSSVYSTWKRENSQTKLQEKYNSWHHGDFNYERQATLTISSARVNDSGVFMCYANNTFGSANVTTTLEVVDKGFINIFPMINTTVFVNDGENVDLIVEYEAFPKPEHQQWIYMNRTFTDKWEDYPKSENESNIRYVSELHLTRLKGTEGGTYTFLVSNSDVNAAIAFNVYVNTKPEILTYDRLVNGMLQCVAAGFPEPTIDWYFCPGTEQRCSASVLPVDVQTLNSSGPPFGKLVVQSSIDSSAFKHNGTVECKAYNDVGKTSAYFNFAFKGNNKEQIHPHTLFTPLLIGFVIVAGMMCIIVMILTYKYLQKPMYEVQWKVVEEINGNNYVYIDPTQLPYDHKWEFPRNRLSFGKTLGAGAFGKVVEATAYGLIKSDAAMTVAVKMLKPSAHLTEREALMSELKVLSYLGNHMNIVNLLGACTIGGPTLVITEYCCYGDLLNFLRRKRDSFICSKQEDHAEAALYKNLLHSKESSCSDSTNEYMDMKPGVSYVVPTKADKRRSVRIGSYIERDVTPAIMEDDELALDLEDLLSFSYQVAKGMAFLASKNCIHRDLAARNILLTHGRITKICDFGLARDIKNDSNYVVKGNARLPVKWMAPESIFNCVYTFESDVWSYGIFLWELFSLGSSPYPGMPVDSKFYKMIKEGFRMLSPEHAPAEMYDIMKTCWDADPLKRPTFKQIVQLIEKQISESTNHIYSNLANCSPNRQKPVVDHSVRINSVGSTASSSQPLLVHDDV
# assay.info: Suppression of proliferation of TEL-KIT fusion gene transfected Ba/F3 cells;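 note: viable cells quantified via formazan from tetrazolium reduction, inhibition scaled with 0.1% DMSO control as 0% and medium-only blank as 100%, IC50 from two-parameter logistic fit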
# stated.conditions: read-out: KIT/BaF3 proliferation inhibition (IC50); TEL-KIT expressing Ba/F3 cells, 72 hours, final concentration 0.1 to 10,000 nM
measure: pIC50
Give only the number. pIC50 is defined as minus log10 of concentration in molar units.

Use the examples below as a reference point.
In [3]: df
Out[3]:
                                     smiles  measure  readout_value
0  Cc1ccc(C(=O)N[C@H]2CCCC[C@@H]2O)cc1NC(=O)c1cnc(-c2ccccc2)o1    pIC50           6.77
1  Cc1ccc(C(=O)N[C@H]2CCCC[C@@H]2O)cc1CCc1cncc(-c2ccccc2)c1    pIC50           6.06
2  COc1ccc(-c2cncc(C(=O)Nc3cc(C(=O)N[C@H]4CCCC[C@@H]4O)ccc3C)c2)cc1    pIC50           6.28
3  Cc1ccc(C(=O)N[C@H]2CCCC[C@@H]2O)cc1C#Cc1cncc(Br)c1    pIC50           6.08
4  Cc1ccc(C(=O)N[C@H]2CCCC[C@@H]2O)cc1N[C@@H](C)c1cncc(C#Cc2ccccc2)c1    pIC50           5.77
5  Cc1ccc(C(=O)N[C@H]2CCCC[C@@H]2O)cc1NC(=O)c1cncc(-c2cccc(F)c2F)c1    pIC50           5.89
6  Cc1ccc(C(=O)N[C@H]2CCCC[C@@H]2O)cc1NC(=O)c1cnc(CC2CC2)s1    pIC50           6.21
7  Cc1ccc(C(=O)N[C@H]2CCCC[C@@H]2O)cc1NC(=O)c1cncc(-c2ccc(C(F)(F)F)cc2F)c1    pIC50           5.46
8  Cc1ccc(C(=O)N[C@H]2CCCC[C@@H]2O)cc1NC(=O)c1cncc(-c2cc(F)c(F)c(F)c2)c1    pIC50           5.10
9  Cc1ccc(C(=O)N[C@H]2CCCC[C@@H]2O)cc1C#Cc1cncc(-c2cnccn2)c1    pIC50           6.62

// query pIC50 value for entry "Cc1ccc(C(=O)N[C@H]2CCCC[C@@H]2O)cc1NC(=O)c1cncc(OC2CC(F)(F)C2)c1"
5.15

// query pIC50 value for entry "Cc1ccc(C(=O)N[C@H]2CCCC[C@@H]2O)cc1NC(=O)c1cnc(NCC(C)(C)C)s1"
5.68

// query pIC50 value for entry "O=C(Nc1cc(CNc2cncc(-c3ncccn3)c2)ccc1F)N[C@@H]1CCCC[C@@H]1O"
5.92

// query pIC50 value for entry "Cc1ccc(C(=O)N[C@H]2CCCC[C@@H]2O)cc1C#Cc1cncc(-c2ccccn2)c1"
7.00

// query pIC50 value for entry "Cc1ccc(C(=O)N[C@H]2CCCC[C@@H]2O)cc1NCc1cncc(Br)c1"
5.57

// query pIC50 value for entry "Cc1c(F)cc(C(=O)N[C@H]2CCCC[C@@H]2O)cc1NCc1cncc(-c2ncccn2)c1"
5.89

###

Parameter pIC50, tested on PDGFR-β (Homo sapiens (Human), UniProt P09619), listed per item.
Sequence (P09619 33-1106): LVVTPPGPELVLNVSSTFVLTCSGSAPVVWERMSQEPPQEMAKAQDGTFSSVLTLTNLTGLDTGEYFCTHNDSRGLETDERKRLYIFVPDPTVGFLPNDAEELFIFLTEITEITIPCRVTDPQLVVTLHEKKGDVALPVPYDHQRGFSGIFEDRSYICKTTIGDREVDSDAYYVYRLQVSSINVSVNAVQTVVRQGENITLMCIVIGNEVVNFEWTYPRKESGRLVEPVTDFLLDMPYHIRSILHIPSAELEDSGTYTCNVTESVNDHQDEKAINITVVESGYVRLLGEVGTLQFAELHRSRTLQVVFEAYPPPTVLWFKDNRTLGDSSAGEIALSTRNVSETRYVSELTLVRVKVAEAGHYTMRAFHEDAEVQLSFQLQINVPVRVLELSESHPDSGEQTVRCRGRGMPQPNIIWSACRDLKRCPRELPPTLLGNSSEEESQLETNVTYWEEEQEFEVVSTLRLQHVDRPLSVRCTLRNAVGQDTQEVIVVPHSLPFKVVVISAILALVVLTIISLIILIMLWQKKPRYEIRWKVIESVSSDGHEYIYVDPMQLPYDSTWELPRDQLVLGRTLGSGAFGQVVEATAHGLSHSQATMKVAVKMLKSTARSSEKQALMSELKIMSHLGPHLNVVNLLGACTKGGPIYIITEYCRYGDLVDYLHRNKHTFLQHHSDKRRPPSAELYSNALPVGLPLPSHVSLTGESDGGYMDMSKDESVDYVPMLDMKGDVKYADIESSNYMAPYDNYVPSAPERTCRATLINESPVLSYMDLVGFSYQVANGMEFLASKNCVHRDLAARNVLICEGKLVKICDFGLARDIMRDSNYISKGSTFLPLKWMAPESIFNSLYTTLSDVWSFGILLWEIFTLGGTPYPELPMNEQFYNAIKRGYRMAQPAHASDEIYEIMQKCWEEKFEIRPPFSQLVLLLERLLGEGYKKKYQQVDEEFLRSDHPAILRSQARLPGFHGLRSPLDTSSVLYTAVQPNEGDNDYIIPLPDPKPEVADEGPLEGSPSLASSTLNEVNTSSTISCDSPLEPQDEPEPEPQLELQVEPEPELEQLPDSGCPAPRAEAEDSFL
Give only the number. pIC50 is defined as minus log10 of concentration in molar units.

Notebook: pull reported pIC50 for PDGFR-β (Homo sapiens (Human), UniProt P09619), entry "C[C@H](Nc1cc(C(=O)N[C@H]2CCCC[C@@H]2O)ccc1Cl)c1cncc(-c2cccnc2)c1"
6.51

Notebook: pull reported pIC50 for PDGFR-β (Homo sapiens (Human), UniProt P09619), entry "Cc1ccc(C(=O)N[C@H]2CCCC[C@@H]2O)cc1NC(=O)c1cnc(NCC2CC2)s1"
8.22
